Tested on: PPARa:RXRa (NR concentration 270 nM, RXRa partner concentration 90 nM)
assay comment: PBM binding z-score (relative to random genomic background probes); higher = stronger binding; sequences stand for … in GC…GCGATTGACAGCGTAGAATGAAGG
Criterion: PBM binding z-score meeting or surpassing 1. Met: YES. Not met: NO.

Q. Does PBM binding z-score meet or surpass 1 for `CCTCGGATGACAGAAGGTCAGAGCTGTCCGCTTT` ?
A. YES

Q. Does the sequence `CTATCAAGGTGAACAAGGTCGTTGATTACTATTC` have recorded PBM binding z-score that is 1 or more?
A. YES

Q. Exam item: decide whether the reported PBM binding z-score for `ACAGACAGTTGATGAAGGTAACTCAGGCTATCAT` is at least 1.
A. NO

Q. Does PBM binding z-score meet or surpass 1 for `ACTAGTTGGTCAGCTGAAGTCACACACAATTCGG` ?
A. NO

Q. Could you verify whether the entry `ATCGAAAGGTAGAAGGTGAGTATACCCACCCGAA` shows PBM binding z-score of no less than 1?
A. YES

Q. Reported PBM binding z-score at or above 1? `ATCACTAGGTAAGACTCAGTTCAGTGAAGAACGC`
A. NO

Q. Exam item: decide whether the reported PBM binding z-score for `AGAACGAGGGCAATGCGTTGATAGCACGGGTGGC` is at least 1.
A. YES

Q. Has `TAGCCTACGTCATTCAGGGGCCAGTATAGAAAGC` a recorded PBM binding z-score greater than or equal to 1?
A. NO

* * *

Tested on: PPARg:RXRa 270nM:90nM, anti-RXR (NR concentration 270 nM, RXRa partner concentration 90 nM)
assay comment: PBM binding z-score (relative to random genomic background probes); higher = stronger binding; sequences stand for … in GC…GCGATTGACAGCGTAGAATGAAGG
# PBM binding z-score annotations

record sequence: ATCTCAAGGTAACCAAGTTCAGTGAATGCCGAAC
PBM binding z-score: 0.412
//
record sequence: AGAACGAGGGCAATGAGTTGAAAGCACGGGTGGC
PBM binding z-score: 1.21
//
record sequence: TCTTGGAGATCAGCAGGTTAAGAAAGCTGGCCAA
PBM binding z-score: 0.883
//
record sequence: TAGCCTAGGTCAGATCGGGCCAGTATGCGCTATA
PBM binding z-score: 0.593
//
record sequence: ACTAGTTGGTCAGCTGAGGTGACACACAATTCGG
PBM binding z-score: 0.582

Q. Complete the entry with PBM binding z-score for `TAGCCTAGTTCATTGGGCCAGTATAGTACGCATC`
A. 0.538

* * *

Test system: LXRa:RXRa (NR concentration 270 nM, RXRa partner concentration 90 nM)
assay comment: PBM binding z-score (relative to random genomic background probes); higher = stronger binding; sequences stand for … in GC…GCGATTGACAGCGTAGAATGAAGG
# PBM binding z-score per entry
Give a plain numeric answer without units written out.

Use these answered entries as a reference point.
record sequence: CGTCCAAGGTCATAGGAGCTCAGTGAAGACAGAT
quantity: PBM binding z-score
measured result: 5.19

record sequence: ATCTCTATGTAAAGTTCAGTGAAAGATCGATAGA
quantity: PBM binding z-score
measured result: 1.72

record sequence: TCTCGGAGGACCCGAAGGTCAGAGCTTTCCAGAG
quantity: PBM binding z-score
measured result: 0.637

record sequence: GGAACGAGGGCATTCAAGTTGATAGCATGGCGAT
quantity: PBM binding z-score
measured result: 1.46

Q. Using the record for `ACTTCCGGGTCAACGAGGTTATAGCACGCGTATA` , state its measured PBM binding z-score.
A. 4.46

Q. Note PBM binding z-score for the sequence shown: `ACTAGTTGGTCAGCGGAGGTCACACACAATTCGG`
A. 3.44

Q. Determine from records and report PBM binding z-score for `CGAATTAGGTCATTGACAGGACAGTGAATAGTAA`
A. 3.39

Q. Return PBM binding z-score for the following sequence: `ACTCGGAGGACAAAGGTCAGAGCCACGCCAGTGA`
A. 4.56

Q. Indicate its recorded PBM binding z-score; the sequence in question is `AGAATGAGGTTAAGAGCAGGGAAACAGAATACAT`
A. 1.9

Q. Using known records, supply PBM binding z-score for `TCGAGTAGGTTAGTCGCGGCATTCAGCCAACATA`
A. -0.139

Q. Return reported PBM binding z-score. Input sequence: `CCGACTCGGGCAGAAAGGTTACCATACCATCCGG`
A. 0.698

* * *

System: PXR:RXRa (NR concentration 270 nM, RXRa partner concentration 90 nM)
assay comment: PBM binding z-score (relative to random genomic background probes); higher = stronger binding; sequences stand for … in GC…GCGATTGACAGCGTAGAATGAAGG
The entries below come with measured PBM binding z-score values attached.
Please reply with the value in numeric form only.

record sequence: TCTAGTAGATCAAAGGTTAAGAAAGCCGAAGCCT
PBM binding z-score: 1.86
--
record sequence: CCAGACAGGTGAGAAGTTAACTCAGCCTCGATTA
PBM binding z-score: -0.109
--
record sequence: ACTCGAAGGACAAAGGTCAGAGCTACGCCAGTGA
PBM binding z-score: 3.58
--
record sequence: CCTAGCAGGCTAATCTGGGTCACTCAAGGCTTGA
PBM binding z-score: 0.328

Shifting focus to the sequence that follows.
Q. Write down PBM binding z-score measured for item `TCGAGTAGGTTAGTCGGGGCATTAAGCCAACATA`
A. 0.149

* * *

Below, each entry is listed with its recorded PBM binding z-score.
System: PPARg homodimer (NR concentration 180 nM)
assay comment: PBM binding z-score (relative to random genomic background probes); higher = stronger binding; sequences stand for … in GC…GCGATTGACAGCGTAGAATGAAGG
No unit in the answer, only the number.

Consider the worked cases shown below.
record sequence: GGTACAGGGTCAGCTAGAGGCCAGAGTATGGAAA
PBM binding z-score: 2.93
//
record sequence: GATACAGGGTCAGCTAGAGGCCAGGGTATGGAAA
PBM binding z-score: 2.74
//
record sequence: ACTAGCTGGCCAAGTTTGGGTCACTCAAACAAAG
PBM binding z-score: -0.138
//
record sequence: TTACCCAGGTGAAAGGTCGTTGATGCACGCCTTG
PBM binding z-score: 2.1
//
record sequence: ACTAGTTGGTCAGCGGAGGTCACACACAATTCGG
PBM binding z-score: 3.06
//
record sequence: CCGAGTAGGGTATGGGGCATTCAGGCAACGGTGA
PBM binding z-score: 0.951
//
record sequence: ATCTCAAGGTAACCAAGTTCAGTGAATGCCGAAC
PBM binding z-score: 0.654
//
record sequence: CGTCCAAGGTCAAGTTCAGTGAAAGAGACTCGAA
PBM binding z-score: 3.64

Alright, here's another sequence for you.
Q. Consider the sequence `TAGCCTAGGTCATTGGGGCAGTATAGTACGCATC` tested on PPARg homodimer (NR concentration 180 nM); state its PBM binding z-score.
A. 1.66

* * *

Test system: RARa:RXR (NR concentration 270 nM, RXRa partner concentration 90 nM)
assay comment: PBM binding z-score (relative to random genomic background probes); higher = stronger binding; sequences stand for … in GC…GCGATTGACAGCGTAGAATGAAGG
Classify by measured PBM binding z-score: 1 if it is equal to or exceeds 0.5, 0 if it is smaller.

Use the examples below as a reference point.
record sequence: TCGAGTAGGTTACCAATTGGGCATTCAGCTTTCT
label value: 0

record sequence: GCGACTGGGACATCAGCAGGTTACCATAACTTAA
label value: 0

record sequence: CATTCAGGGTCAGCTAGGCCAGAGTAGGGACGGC
label value: 1

record sequence: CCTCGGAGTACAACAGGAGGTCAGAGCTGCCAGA
label value: 1

record sequence: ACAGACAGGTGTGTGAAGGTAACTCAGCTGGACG
label value: 0

Q. Confirm if PBM binding z-score reported for the sequence `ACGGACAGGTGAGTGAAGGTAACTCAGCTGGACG` is 0.5 or above.
A. 0

Q. Quick check, PBM binding z-score >= 0.5? `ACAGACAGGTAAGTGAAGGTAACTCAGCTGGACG`
A. 0

Q. PBM binding z-score >= 0.5 for `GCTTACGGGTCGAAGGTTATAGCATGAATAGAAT` ?
A. 1

Q. API: above_or_equal(metric=PBM binding z-score, cutoff=0.5) for item `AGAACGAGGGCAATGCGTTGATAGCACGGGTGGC`
A. 0

* * *

Tested on: RXRa homodimer (NR concentration 180 nM)
assay comment: PBM binding z-score (relative to random genomic background probes); higher = stronger binding; sequences stand for … in GC…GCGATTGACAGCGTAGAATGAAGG
quantity: PBM binding z-score

Below: 5 sequences and their reported PBM binding z-score.
record sequence: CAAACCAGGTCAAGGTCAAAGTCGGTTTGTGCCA
PBM binding z-score: 6.52

record sequence: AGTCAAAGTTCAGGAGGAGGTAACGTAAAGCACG
PBM binding z-score: 3.26

record sequence: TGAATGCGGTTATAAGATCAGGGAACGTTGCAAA
PBM binding z-score: -0.0523

record sequence: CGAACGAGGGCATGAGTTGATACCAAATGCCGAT
PBM binding z-score: 0.992

record sequence: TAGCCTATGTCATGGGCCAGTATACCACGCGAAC
PBM binding z-score: 0.178

Q. Give the value of PBM binding z-score reported for the following: `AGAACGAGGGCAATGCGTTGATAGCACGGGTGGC`
A. 0.834

Q. // Input: `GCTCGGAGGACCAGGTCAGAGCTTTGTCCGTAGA` . Output its PBM binding z-score only.
A. 0.617

Q. Recall and state the measured PBM binding z-score for `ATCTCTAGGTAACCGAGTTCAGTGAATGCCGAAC` .
A. 0.704
